Conditions: in 2-phenylethanol, 314.15 K
measure: solubility (mole fraction)

Need solubility (mole fraction) of `CCc1ccc2c(c1)C(=O)c1ccccc1C2=O` , thanks.
0.15
